Test system: MDA-MB-231 breast
Experiment: NCI tumour cell line growth inhibition, 48 h
Experimental endpoint: GI50

Answered cases to consult:
COc1cc2c(/C=C3/C(=O)Nc4cccc(Cl)c43)c(Cl)n(Cc3ccccc3)c2cc1C; 3.38 µM
COc1cccc(NCc2nnc(Nc3ccc(Cl)cc3)c3ccccc23)c1; 1.32 µM
Cn1cc(-c2csc(-c3cccc(F)c3)n2)c2cccnc21; 16.8 µM
C[C@]12CC[C@@H]3c4ccc(O)cc4C[C@@H](CCCCCCCCCS(=O)CCCC(F)(F)C(F)(F)F)[C@H]3[C@@H]1CC[C@@H]2O (stereo not given in full); > 100 µM

Turning now to a further record.
Q: What GI50 value was documented for this molecule, CN1C(NC(=O)c2ccc(Cl)nc2)=NS(=O)(=O)c2cc(Cl)ccc21 ?
A: > 100 µM

###

Test system: DU-145 prostate
Experiment: NCI tumour cell line growth inhibition, 48 h
Experimental endpoint: TGI

CC(=O)O[C@@H]1C=C(C)[C@H](CBr)O[C@@]2(C)CC[C@H](Br)C(C)(C)[C@H]12; > 100 µM
CC(=O)c1cccc2c1CC1(C2)Cc2ccc3c(c2C1=O)CCC3 (stereo unspecified); > 100 µM
O=C(C[C@@H](C(=O)NCc1cccc(C(F)(F)F)c1)N1C(=O)[C@@H](N2C(=O)OC[C@@H]2c2ccccc2)[C@H]1/C=C/c1ccccc1)NC1CCN(Cc2ccccc2)CC1; > 100 µM

Q: What TGI value was documented for this molecule, COC12C=CC(CC1)C(C)(C)C2=O (stereo unspecified) ?
A: > 100 µM

Q: Same thing, different molecule: CCCN=C(NC(=O)c1ccc(Cl)cc1)SC
A: > 100 µM

Q: Same thing, different molecule: N#CC1=C(N2CCCC2)NC(=O)CC1=O
A: > 100 µM

###

System: SN12C renal
Test: NCI tumour cell line growth inhibition, 48 h
Experimental endpoint: TGI

COc1cc2c(/C=C3/C(=O)Nc4cccc(Cl)c43)c(Cl)n(Cc3ccccc3)c2cc1C; > 35 µM
O=C(/C=C/c1ccccc1Cl)c1ccccc1Cl; 41.4 µM
COC(=O)C1(c2ccc(N(C)C)cc2OC)CCCN(C(=O)Oc2ccccc2[N+](=O)[O-])CCc2c1[nH]c1ccccc21 (configuration not stated); > 100 µM
CSc1nc(Cl)c2c(n1)Sc1nc3cc4c(cc3n1C2O)OCO4 (configuration not stated); 32.4 µM
CC(C)CCN=c1cc2n(-c3ccc(Cl)cc3)c3ccccc3nc-2cc1Nc1ccc(Cl)cc1; 58.1 µM

Q: What TGI value was documented for this compound, COc1cc(C2c3cc4c(cc3[C@H](OCCN(C)C)[C@@H]3COC(=O)C23)OCO4)cc(OC)c1O (some centres not stated) ?
A: 0.598 µM

Q: Same thing, different compound: CCOC(=O)/C(O)=C(/C=NC(=S)c1ccncc1)C(=O)OCC
A: > 100 µM

Q: Same thing, different compound: NCCc1nc(-c2nc(C(=O)O)cs2)cs1
A: > 100 µM

Q: Same thing, different compound: COC(=O)c1ccc2c(c1)CC1(C2)Cc2cc3c(cc2C1=O)CCC3 (configuration not stated)
A: > 100 µM

Q: Same thing, different compound: C[C@]12CC[C@@H]3c4ccc(O)cc4C[C@@H](CCCCCCCCCS(=O)CCCC(F)(F)C(F)(F)F)[C@H]3[C@@H]1CC[C@@H]2O (some centres not stated)
A: > 100 µM

Q: Same thing, different compound: CC(=O)NCc1nc(C#N)c(N)o1
A: > 100 µM

Q: Same thing, different compound: CC(=O)[O][Hg][c]1c(C)c(C)c(C)c(C)c1C
A: 2.97 µM

Q: Same thing, different compound: O=C(CNc1ccc(Cl)cc1)Nn1c(-c2ccccc2)nc2ccccc2c1=O
A: 20.9 µM
